Taken from patent US20250108038A1.

# system-name: BCRP (Homo sapiens)
# Sequence (Q9UNQ0 whole entry): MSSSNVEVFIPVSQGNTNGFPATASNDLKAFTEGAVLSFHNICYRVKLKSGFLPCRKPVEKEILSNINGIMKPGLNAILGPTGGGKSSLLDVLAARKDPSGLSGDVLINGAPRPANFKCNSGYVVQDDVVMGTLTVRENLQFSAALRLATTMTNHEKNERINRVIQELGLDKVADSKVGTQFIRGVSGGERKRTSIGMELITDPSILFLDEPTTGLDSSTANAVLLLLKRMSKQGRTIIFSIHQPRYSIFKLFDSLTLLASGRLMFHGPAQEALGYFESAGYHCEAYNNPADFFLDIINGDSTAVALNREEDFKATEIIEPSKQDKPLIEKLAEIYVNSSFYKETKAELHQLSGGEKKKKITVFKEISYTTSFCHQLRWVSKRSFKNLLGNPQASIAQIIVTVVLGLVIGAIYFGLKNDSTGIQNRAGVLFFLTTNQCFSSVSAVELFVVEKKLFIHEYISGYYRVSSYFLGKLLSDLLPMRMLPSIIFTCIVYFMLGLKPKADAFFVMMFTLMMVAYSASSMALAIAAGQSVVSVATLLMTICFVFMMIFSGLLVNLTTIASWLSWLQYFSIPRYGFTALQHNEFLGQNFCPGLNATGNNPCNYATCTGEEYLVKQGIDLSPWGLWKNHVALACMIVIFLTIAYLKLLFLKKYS
# experiment-notes: Vesicular transport inhibition assay, BCRP (estrone-3-sulfate)
# condition-notes: human
property-name: inhibition at 50 μM

Param item: OC1(c2ccc(Cl)cc2)c2ccccc2C2=NCCN21 (stereo not shown) [Compound A, reference compound] ; param system: BCRP (Homo sapiens); output inhibition at 50 μM: 2%

---

# system-name: UniProt:P08183
# Sequence (P08183 whole entry): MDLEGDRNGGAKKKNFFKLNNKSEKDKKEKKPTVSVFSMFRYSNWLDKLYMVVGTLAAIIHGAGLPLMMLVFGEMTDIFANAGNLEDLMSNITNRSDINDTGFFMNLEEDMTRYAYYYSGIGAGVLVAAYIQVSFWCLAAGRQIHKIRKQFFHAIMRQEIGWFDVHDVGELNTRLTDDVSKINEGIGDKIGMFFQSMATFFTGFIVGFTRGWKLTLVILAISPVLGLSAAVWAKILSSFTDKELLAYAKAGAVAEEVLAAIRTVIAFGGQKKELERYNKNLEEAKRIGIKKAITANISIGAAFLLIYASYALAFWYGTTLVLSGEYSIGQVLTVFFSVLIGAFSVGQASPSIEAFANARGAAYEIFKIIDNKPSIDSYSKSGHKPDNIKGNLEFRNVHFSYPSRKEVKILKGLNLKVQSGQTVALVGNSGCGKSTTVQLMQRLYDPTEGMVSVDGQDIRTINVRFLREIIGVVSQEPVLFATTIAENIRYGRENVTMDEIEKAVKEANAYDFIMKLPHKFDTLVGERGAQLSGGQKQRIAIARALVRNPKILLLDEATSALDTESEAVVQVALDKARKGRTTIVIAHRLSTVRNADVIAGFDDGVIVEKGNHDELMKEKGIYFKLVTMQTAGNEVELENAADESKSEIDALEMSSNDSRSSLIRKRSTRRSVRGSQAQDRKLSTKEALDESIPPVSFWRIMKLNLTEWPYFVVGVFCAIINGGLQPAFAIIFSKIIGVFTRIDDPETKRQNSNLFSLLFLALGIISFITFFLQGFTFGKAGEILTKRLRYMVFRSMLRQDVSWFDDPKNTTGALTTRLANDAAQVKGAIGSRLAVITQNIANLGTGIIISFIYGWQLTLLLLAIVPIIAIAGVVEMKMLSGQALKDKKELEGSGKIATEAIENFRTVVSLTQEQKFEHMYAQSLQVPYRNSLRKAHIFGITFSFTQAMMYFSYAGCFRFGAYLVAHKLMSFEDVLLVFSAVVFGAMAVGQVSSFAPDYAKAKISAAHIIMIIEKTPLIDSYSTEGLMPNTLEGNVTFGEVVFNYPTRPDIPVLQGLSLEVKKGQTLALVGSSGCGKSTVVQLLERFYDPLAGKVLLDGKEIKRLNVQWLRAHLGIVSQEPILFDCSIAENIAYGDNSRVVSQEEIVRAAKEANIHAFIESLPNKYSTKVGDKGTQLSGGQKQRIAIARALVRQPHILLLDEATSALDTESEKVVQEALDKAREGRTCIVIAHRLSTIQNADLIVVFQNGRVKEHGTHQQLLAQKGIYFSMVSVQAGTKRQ
# experiment-notes: Vesicular transport inhibition assay, MDR1 (N-methyl quinidine)
# condition-notes: human, Relative inhibition, 5.00 μM nominal
property-name: inhibition at 5 μM (%)
Provide only the numeric value, understood in %.

OC1(c2ccc(Cl)cc2)c2ccccc2C2=NCCN21 (stereo not shown) [Compound A, reference compound] has a reported inhibition at 5 μM of 1
